# system: Heat shock factor protein 1 (Mus musculus)
# Sequence (P38532 whole entry): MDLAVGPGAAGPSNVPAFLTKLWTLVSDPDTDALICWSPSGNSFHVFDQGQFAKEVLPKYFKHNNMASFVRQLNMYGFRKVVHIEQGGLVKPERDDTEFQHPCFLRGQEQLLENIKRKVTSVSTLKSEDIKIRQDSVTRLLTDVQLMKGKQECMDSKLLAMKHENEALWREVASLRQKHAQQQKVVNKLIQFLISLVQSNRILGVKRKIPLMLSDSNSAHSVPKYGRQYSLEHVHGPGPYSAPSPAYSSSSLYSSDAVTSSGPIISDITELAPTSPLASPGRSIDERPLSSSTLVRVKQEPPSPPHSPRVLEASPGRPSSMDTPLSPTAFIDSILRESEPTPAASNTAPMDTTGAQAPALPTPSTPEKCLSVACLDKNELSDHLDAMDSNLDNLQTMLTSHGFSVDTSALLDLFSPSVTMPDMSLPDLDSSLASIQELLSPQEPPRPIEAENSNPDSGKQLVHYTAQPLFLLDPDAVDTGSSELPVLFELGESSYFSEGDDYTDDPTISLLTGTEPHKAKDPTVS
# protocol_notes: inhibition of MG132-induced HSE-luciferase signal, confirmation, cell-based, NIH3T3, luminescence, dose retest (AID 2382);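 note: NIH3T3 fibroblasts with HSF1-driven luciferase reporter stressed by proteasome inhibitor MG132; luminescence from HSF1-driven luciferase expression after 8 hours of MG132 stress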
# Type: functional
Where a name gives a salt, the structure may show the parent alone. Activity calls are given as the source filed them.
measured_endpoint: EC50

{"columns": ["molecule", "EC50"],
 "data": [
  ["CC(=O)N(c1ccc2oc(=O)sc2c1)S(=O)(=O)c1ccc(C(=O)O)cc1", "> 195 µM (not active)"],
  ["Cc1ccc(NC(=O)N2CCCC2C(=O)NCC2CCCCC2)cc1 (stereo not given)", "> 195 µM (not active)"],
  ["Cn1c(=O)c2ncn(CC(=O)Nc3ccc4c5c(cccc35)CC4)c2n(C)c1=O", "> 195 µM (not active)"],
  ["CC(=O)Nc1cccc(NC(=O)CSc2nnc(Cc3cccn3C)n2-c2ccc(F)cc2)c1", "> 195 µM (not active)"],
  ["Cn1ccnc1SCC(=O)N(C1CCCCC1)C1CCCCC1", "> 195 µM (not active)"],
  ["C=CCSC1=Nc2sccc2C2=NC(=O)CN12", "18.5 µM (active)"],
  ["CC(=O)[C@]1(O)Cc2c(O)c3c(c(O)c2[C@@H](O[C@H]2C[C@H](N)[C@H](O)[C@H](C)O2)C1)C(=O)c1ccccc1C3=O [IDARUBICIN HYDROCHLORIDE]", "3.01 µM (inconclusive)"],
  ["O=S1(=O)C=C(Sc2nc3ccccc3s2)c2ccccc21", "3.93 µM (inconclusive)"],
  ["Cc1cccc(N2CCN(C(c3ccccc3)c3nnnn3CC3CCCO3)CC2)c1C (stereo not given)", "> 195 µM (not active)"]
]}

From here, focus on the item given below.
The molecule identified as CC(=O)Cn1ncc(Br)c(Br)c1=O registered its EC50 at 12.4 µM (active)

* * *

Entries below carry reported AC50 on Cytochrome P450 2C9 (Homo sapiens).
Sequence (P11712 whole entry): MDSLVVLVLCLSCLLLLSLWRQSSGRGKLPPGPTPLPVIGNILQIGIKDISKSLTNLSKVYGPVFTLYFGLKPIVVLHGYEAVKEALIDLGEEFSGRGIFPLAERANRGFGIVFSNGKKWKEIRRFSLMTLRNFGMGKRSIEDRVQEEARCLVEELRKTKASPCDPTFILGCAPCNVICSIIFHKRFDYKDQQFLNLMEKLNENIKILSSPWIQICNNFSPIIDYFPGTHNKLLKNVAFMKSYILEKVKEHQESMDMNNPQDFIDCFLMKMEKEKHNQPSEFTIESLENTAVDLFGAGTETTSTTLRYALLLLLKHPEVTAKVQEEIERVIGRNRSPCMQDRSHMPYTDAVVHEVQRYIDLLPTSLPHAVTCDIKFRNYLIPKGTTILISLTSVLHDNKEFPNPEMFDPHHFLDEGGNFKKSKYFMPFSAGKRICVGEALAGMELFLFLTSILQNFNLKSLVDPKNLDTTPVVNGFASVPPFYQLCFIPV

{"columns": ["compound", "AC50"],
 "data": [
  ["O=C(CCCN1CC=C(n2c(=O)[nH]c3ccccc32)CC1)c1ccc(F)cc1", "inconclusive"],
  ["C/C(CC(=O)NCCCN1CCOCC1)=N\\NC(=O)COc1ccc(Cl)cc1", "inconclusive"],
  ["COc1ccc(Cl)cc1NC(=O)C12CCC(C)(C(=O)O1)C2(C)C (stereo not drawn)", "inconclusive"]
]}

* * *

# system: Leucine aminopeptidase (Plasmodium falciparum 3D7, UniProt Q8IL11)
# Sequence (Q8IL11 whole entry): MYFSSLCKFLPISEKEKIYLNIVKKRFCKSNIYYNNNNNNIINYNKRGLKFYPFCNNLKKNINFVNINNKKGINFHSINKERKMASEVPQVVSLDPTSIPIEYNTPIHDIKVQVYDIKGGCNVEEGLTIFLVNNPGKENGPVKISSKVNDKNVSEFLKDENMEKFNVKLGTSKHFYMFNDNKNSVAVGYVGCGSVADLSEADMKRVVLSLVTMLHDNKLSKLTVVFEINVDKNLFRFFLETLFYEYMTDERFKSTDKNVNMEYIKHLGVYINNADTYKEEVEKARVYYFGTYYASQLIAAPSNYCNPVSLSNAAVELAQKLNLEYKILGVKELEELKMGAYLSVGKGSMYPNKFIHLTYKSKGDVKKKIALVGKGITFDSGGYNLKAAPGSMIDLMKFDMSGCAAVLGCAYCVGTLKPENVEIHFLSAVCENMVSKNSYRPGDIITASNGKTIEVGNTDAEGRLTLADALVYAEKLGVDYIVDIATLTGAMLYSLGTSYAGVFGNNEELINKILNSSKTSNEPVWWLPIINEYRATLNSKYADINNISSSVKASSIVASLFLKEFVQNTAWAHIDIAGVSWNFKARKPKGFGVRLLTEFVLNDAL
# protocol_notes: P. falciparum M17LAP inhibitors, primary screen, biochemical, fluorogenic H-Leu-NHMec substrate, 1536-well (AID 1619)
# Format: functional
The source made the active and inactive calls.
measured_endpoint: IC50

These solved cases illustrate the format of a correct answer.
{"columns": ["compound", "result"],
 "data": [
  ["CN(C)c1ccc(/C=C/c2ccc3ccccc3[n+]2C)cc1", "88.4 µM (active)"],
  ["CC1=NNC(=O)C1CCC(=O)N/N=C/c1ccco1 (stereo not given)", "69.2 µM (active)"],
  ["CC1=C(C)CC(C(=O)NCCc2ccccc2)C(C(=O)O)C1 (stereo not given)", "46 µM (active)"],
  ["CCOc1cccc(-c2cc(O)[nH]n2)c1", "1.25 µM (active)"]
]}

Proceed to the following item.
Item: CCCCc1ccc(NC(=O)N[C@H](C(=O)O)C(C)C)cc1 | IC50: 7.04 µM (active)
